Target: RIPK1 enzyme (Homo sapiens, UniProt Q13546)
Sequence (Q13546 whole entry): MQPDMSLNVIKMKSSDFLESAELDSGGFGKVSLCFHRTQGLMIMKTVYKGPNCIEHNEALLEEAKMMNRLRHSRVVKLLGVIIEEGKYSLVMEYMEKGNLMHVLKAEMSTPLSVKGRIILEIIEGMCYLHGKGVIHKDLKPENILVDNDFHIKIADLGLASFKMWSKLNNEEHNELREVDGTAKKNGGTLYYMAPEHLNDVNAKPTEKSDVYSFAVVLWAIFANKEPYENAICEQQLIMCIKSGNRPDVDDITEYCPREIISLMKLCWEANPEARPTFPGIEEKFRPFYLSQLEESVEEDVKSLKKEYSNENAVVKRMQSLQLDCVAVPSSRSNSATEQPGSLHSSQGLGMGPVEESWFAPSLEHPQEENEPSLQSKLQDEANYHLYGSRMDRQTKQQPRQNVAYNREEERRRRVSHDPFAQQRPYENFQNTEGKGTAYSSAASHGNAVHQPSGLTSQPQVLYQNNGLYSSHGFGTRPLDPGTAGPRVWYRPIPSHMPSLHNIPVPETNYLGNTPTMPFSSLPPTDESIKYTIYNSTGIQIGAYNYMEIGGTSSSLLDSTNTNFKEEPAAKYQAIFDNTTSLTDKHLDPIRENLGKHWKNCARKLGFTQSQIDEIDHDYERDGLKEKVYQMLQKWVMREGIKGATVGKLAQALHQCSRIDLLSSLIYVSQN
pIC50: −log10 of the molar value.
Documented pIC50 across a set of compounds

[
  {
    "COMPOUND": "COc1ncc(-c2ccc3nc(N)sc3c2)cc1C(=O)NC(C)c1cccc(OC(F)(F)F)c1 (stereo not drawn) [Compound Z3]",
    "pIC50": 7.49
  },
  {
    "COMPOUND": "COc1ncc(-c2ccc3nc(NC(C)=O)sc3c2)cc1C(=O)NC(C)c1ccccc1OC(F)(F)F (single isomer, unassigned) [Compound Z5-1]",
    "pIC50": 7.55
  },
  {
    "COMPOUND": "C[C@H](c1ccccc1OC(F)(F)F)N1CCc2ncc(-c3ccc4nc(N)sc4c3)cc2C1=O (single isomer, unassigned) [Compound Z54-2]",
    "pIC50": 7.29
  },
  {
    "COMPOUND": "COc1ncc(-c2ccc3nc(NC(=O)C4CC4)sc3c2)cc1C(=O)NC(C)c1ccccc1OC(F)(F)F (stereo not drawn) [Compound Z56]",
    "pIC50": 7.44
  },
  {
    "COMPOUND": "COc1ncc(-c2ccc3nc(NC(=O)C4CC4)sc3c2)cc1C(=O)NC(C)c1ccccc1OC(F)(F)F (single isomer, unassigned) [Compound Z6]",
    "pIC50": 7.44
  },
  {
    "COMPOUND": "CC(NC(=O)c1cncc(-c2ccc3nc(N)sc3c2)c1)c1ccccc1OC(F)(F)F (stereo not drawn) [Compound Z9]",
    "pIC50": 7.22
  },
  {
    "COMPOUND": "COc1ncc(C(=O)NC(C)c2ccccc2OC(F)(F)F)cc1-c1ccc2nc(N)sc2c1 (stereo not drawn) [Compound Z7]",
    "pIC50": 7.08
  },
  {
    "COMPOUND": "COc1ncc(-c2ccc3nc(N)sc3c2)cc1C(=O)NCc1ccccc1OC(F)(F)F [Compound Z2]",
    "pIC50": 7.64
  },
  {
    "COMPOUND": "COc1ncc(-c2ccc3nc(NC(C)=O)sc3c2)cc1C(=O)NC(C)c1ccccc1OC(F)(F)F (single isomer, unassigned) [Compound Z5]",
    "pIC50": 7.54
  }
]
